# Test Protocol: inhibitors of HIV Env-driven cell fusion, dose response, cherry-pick (AID 652057)
# Assay type: functional, cell-based
The source made the active and inactive calls.
Test Readout: AC50

// solved cases for AC50 follow
>  <Molecule>
Cc1cc(Nc2ccc(Cl)cc2)nc(NCc2ccccc2)n1

>  <Measured Result>
2980 nM (active)

$$$$
>  <Molecule>
C[C@@H]1CN([C@@H](C)CO)C(=O)c2cccc(NC(=O)c3ccncc3)c2O[C@H]1CN(C)CC1CCCCC1

>  <Measured Result>
400 nM (active)

$$$$
>  <Molecule>
NC(=S)c1cn([C@@H]2O[C@H](CO)[C@@H](O)[C@H]2O)c2ncnc(N)c12

>  <Measured Result>
< 260 nM (active)

$$$$

Query block: Requested read-out: AC50. Entry: CC1=C(C(=O)OCc2ccc3c(c2)OCO3)C(c2ccc(F)cc2)NC(=O)N1 (centres undefined)
Result block: 284 nM (active)

====

Reported IC50 by item:
# System: Ubiquitin-conjugating enzyme E2 N (Homo sapiens, UniProt P61088)
# Sequence (P61088 whole entry): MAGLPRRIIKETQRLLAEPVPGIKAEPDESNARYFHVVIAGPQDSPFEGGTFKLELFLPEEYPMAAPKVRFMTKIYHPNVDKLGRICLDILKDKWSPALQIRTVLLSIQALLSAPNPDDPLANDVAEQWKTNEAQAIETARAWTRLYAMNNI
# Format: functional
The source made the active and inactive calls.

Examples with answers:
>  <Molecule>
CCc1cccc2c(C(=O)C(NC(C)CC)c3ccccc3)c[nH]c12 (stereo not given)

>  <System>
Ubiquitin-conjugating enzyme E2 N (Homo sapiens, UniProt P61088)

>  <IC50>
9.25 µM (active)

$$$$
>  <Molecule>
Cc1cc(N)c2cc(NC(=O)/C=C/c3ccccc3Cl)ccc2n1

>  <System>
Ubiquitin-conjugating enzyme E2 N (Homo sapiens, UniProt P61088)

>  <IC50>
3 µM (active)

$$$$

Query block: Query IC50 on Ubiquitin-conjugating enzyme E2 N (Homo sapiens, UniProt P61088) for CCCS(=O)(=O)c1ncc(Cl)c(C(=O)Nc2ccc(S(=O)(=O)Nc3ncccn3)cc2)n1
Result block: > 20 µM (inactive)

Query block: Test system Ubiquitin-conjugating enzyme E2 N (Homo sapiens, UniProt P61088); read-out IC50; what value for Cc1nn(CC(=O)NCCCN2CCC(Cc3ccccc3)CC2)c(=O)c2cc(-c3ccccc3)nn12 ?
Result block: 4.59 µM (active)

Query block: # get_value(readout= IC50, system= Ubiquitin-conjugating enzyme E2 N (Homo sapiens, UniProt P61088)) for O=C(Nc1ccc(C(=O)NCCCN2CCN(c3ccc(F)cc3)CC2)cc1)C1=CSCCO1
Result block: 10.3 µM (active)

====

Consider the following molecules and their measured AC50 readings.
# System: Dual specificity tyrosine-phosphorylation-regulated kinase 1A (Rattus norvegicus, UniProt Q63470)
# Type: biochemical, Homo sapiens
The source made the active and inactive calls.

Would you please look over these solved cases?
>  <Molecule>
CC1=C(C(=O)OCc2ccc3c(c2)OCO3)C(c2ccc(F)cc2)NC(=O)N1 (stereo not given)

>  <AC50>
1.85 µM (active)

$$$$
>  <Molecule>
O=C(c1ccccc1)c1ccc2cc(O)ccc2c1

>  <AC50>
9.25 µM (active)

$$$$
>  <Molecule>
Fc1cccc(/C=N/Nc2[nH]cnc3ncnc2-3)c1

>  <AC50>
10.1 µM (active)

$$$$
>  <Molecule>
NC(=S)c1cn([C@@H]2O[C@H](CO)[C@@H](O)[C@H]2O)c2ncnc(N)c12

>  <AC50>
0.158 µM (active)

$$$$

The record that follows has no AC50 shown yet.
Query block: // returns reported AC50 for input Oc1ccc(-c2csc(-c3cccnc3)n2)cc1O
Result block: 7.37 µM (active)

====

# System: Corticotropin-releasing factor receptor 2/Corticotropin-releasing factor-binding protein (Homo sapiens, UniProt P24387+Q13324)
# Sequence (Q13324 whole entry): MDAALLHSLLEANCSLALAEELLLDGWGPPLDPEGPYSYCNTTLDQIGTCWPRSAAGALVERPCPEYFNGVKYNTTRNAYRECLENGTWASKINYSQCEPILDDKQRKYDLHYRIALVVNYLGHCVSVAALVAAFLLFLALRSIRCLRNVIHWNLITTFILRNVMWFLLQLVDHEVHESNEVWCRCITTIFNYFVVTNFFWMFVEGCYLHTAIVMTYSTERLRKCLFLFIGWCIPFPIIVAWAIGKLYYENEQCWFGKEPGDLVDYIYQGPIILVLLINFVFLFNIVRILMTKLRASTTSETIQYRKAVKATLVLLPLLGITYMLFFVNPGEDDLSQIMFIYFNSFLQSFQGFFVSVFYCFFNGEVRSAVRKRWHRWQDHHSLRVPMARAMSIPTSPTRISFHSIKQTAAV
# Sequence (P24387 whole entry): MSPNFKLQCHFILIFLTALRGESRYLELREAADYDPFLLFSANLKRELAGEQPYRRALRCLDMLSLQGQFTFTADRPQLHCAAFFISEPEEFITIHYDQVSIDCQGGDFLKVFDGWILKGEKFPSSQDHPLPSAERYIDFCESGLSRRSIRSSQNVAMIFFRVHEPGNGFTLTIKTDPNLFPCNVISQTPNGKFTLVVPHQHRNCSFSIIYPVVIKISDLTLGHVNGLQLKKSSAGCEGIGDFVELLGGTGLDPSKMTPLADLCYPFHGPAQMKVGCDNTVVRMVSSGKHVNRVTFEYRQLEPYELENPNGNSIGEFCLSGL
# Test Protocol: activators of CRF receptor 2 with binding protein – uHTS hits, confirmation (AID 602473)
# Assay type: functional
# Recorded Conditions: read-out: EC50_Mean
The source made the active and inactive calls.
Mark one answer only. Choices: true for active, false for inactive

>  <Compound>
COc1cc(C[C@H](C)[C@H](C)Cc2ccc3c(c2)OCO3)ccc1O

>  <Label Class>
false

$$$$
>  <Compound>
CN(/N=C/c1ccc(Cl)cc1Cl)c1ncc(Cl)cc1C(F)(F)F

>  <Label Class>
false

$$$$
>  <Compound>
COc1cc2c(cc1OC)C(c1c(Cl)cccc1Cl)NC(=O)C2 (stereo unspecified)

>  <Label Class>
true

$$$$

Query block: State the result this test recorded for COc1ccc(S(=O)(=O)N(c2onc(C)c2Cl)S(=O)(=O)c2ccc(OC)cc2)cc1 .
Result block: false

Query block: Recorded test outcome, item O=C(Nc1nnc(-c2ccc(Cl)cc2)o1)c1nc2ccccc2s1
Result block: true

Query block: Hello, I am checking results. What call was entered for N#CCC(=O)Nc1ccc(C(=O)OCC(=O)NNC(=O)c2cccs2)cc1 ?
Result block: false

Query block: # outcome recorded in this test, key = CCc1cc2cc(C)cc(C)c2nc1SCC(=O)N1CCN(C(=O)c2ccco2)CC1
Result block: false

Query block: Would you mind telling me which call this test gave c1ccc(-c2noc(CN3CCN(c4cnccn4)CC3)n2)cc1 ?
Result block: false

Query block: Entry CN(C)/C=N/c1nccc(-c2cccs2)n1 : call = ?
Result block: false

Query block: For CCOC(=O)/C(C#N)=C\c1ccc2c(c1)OCO2 , which call appears in the assay record?
Result block: false

Query block: In this assay, the call recorded for O=C(CCc1nnc2ccc(NCc3ccco3)nn12)N1CCN(c2ccccc2F)CC1 was what?
Result block: false

====

# System: UniProtKB Q9Y4P1
# Sequence (Q9Y4P1 whole entry): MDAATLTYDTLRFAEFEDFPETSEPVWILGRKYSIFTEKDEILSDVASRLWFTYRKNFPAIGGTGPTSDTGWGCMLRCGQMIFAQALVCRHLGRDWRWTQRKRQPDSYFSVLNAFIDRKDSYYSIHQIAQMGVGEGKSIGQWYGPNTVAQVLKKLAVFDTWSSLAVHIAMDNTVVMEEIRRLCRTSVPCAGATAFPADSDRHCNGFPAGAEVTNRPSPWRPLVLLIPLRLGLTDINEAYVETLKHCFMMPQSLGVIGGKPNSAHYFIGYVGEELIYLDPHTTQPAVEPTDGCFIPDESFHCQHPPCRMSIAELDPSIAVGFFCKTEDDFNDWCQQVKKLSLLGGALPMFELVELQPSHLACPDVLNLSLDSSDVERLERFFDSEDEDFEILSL
# Assay type: functional
Activity calls are given as the source filed them.
Test Readout: IC50

Would you please look over these solved cases?
>  <Compound>
C=CCn1c(SCc2nc3scc(-c4ccccc4)c3c(=O)[nH]2)nnc1-c1ccccc1F

>  <IC50>
15.9 µM (active)

$$$$
>  <Compound>
Oc1c(Cl)cc(Cl)cc1/C=N/c1ccc2c(c1)OCCO2

>  <IC50>
7.3 µM (active)

$$$$
>  <Compound>
Cc1cc(/C=N/n2c(COc3ccccc3)nc3ccccc3c2=O)c(O)c([N+](=O)[O-])c1

>  <IC50>
17.2 µM (active)

$$$$
>  <Compound>
Cc1ccc2nc(N/N=C/c3ccccc3F)nc(-c3ccccc3)c2c1

>  <IC50>
17.9 µM (active)

$$$$

Query block: Returns the measured IC50 for the input compound. Input: Cc1cc(Nc2ccc(Cl)cc2)nc(NCc2ccccc2)n1
Result block: 10.9 µM (active)

Query block: For the compound Cc1cccc(N2CCN(C(=O)C3CCN(c4ncnc5c4nc4n5CCCCC4)CC3)CC2C)c1 (stereo unspecified) , what IC50 is on record?
Result block: 15.3 µM (active)

====

# Test Protocol: Luminescence Cell-Based Dose Response HTS to Identify Inhibitors of 5'UTR Stem-Loop Driven Prion Protein mRNA Translation in H4 Neuroglioblastoma Cells. [Related pubchem assays: 1827 (Project Summary), 1813 (Primary HTS)]
# Format: functional
Active and inactive are the calls of the source.
Some molecules, each annotated with its measured EC50.

>  <Molecule>
COC(=O)c1sccc1NC(=O)C1CC2CCC1C2 (stereo unspecified)

>  <EC50>
> 120 µM (not active)

$$$$
>  <Molecule>
CC(C)C[C@H](NC(=O)c1[nH]cnc1C(=O)N1CCN(c2ccccc2)CC1)C(=O)OC(C)(C)C

>  <EC50>
65.1 µM (active)

$$$$
>  <Molecule>
O=C(NCCC1=CCCCC1)C1CCC(CNc2nc(S)nc3ccccc23)CC1 (stereo unspecified)

>  <EC50>
> 120 µM (not active)

$$$$

Query block: # input molecule: COc1ccc(NC(=O)c2cc(Cl)ccc2Cl)c([N+](=O)[O-])c1 ; wanted: its EC50
Result block: > 120 µM (not active)

Query block: Query (molecule): CCOC(=O)c1ccc(NC(=O)CSc2nnc(-c3cccs3)n2CC)cc1 ; field requested: EC50
Result block: > 120 µM (not active)

Query block: # input molecule: Cc1ccccc1-n1nc2c(c1NC(=O)C1CCCC1)CS(=O)(=O)C2 ; wanted: its EC50
Result block: > 120 µM (not active)
